Catalogue of IC50 (read off the curve) readings, one per entry.
assayed target: T1, CTLA-4-hFc (immunogen A; hFc-labeled CTLA-4 extracellular domain protein) (human, UniProt P16410 36-161)
T1 construct: range 36-161; Made in HEK293 cells, purified on protein A; also called CLTA-4-hFc; CTLA-4 protein; not shown: human IgG Fc fragment (hFc) of the pCpC vector
T1 sequence (looked up): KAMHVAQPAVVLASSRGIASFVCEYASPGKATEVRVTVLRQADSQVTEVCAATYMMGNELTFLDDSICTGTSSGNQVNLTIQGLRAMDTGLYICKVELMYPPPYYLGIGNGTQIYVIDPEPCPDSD
assay details: competition ELISA: CTLA-4-hFc coated, antibody titrated, blocked ligand biotin-labeled B7.1-hFc, HRP-avidin, A450, inhibition (%)

# annotated cases, reported IC50 (read off the curve) shown
40C4C6 (chimeric antibody purified from hybridoma supernatant) (antibody, V domains shown, also called mAb09; mAb009) VH: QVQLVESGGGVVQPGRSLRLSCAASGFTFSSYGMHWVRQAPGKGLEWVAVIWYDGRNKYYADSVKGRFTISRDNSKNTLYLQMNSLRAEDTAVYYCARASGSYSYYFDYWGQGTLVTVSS VL: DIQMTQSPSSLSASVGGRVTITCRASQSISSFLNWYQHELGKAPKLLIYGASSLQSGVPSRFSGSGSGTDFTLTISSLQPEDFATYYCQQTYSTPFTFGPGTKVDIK    ~0.3 nM
97A8D1 (chimeric antibody purified from hybridoma supernatant) (antibody, V domains shown, also called mAb49; mAb049) VH: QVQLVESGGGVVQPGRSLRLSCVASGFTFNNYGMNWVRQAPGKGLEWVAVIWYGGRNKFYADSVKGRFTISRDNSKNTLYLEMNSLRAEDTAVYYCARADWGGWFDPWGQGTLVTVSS VL: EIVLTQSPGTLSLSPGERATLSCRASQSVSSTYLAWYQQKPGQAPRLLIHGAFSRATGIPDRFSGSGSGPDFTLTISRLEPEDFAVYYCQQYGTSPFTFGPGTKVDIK    ~0.5 nM

We next turn to a different binder, shown below.
Exercise: Report IC50 (read off the curve) for 92C8B6 (chimeric antibody purified from hybridoma supernatant) (antibody, V domains shown, also called mAb42; mAb042) VH: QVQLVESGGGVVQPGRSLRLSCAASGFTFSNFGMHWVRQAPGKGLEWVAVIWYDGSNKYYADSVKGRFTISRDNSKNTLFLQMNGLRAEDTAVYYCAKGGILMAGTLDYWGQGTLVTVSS VL: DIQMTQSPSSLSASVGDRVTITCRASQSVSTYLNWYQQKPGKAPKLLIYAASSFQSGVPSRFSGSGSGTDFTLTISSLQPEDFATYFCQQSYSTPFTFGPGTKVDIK
Key: ~0.2 nM
